Source of measurements: ChEMBL document CHEMBL4819098

The following compounds are shown together with reported IC50 values.
Target: Prostaglandin G/H synthase 1 (Ovis aries, UniProt P05979)
Sequence (P05979 whole entry): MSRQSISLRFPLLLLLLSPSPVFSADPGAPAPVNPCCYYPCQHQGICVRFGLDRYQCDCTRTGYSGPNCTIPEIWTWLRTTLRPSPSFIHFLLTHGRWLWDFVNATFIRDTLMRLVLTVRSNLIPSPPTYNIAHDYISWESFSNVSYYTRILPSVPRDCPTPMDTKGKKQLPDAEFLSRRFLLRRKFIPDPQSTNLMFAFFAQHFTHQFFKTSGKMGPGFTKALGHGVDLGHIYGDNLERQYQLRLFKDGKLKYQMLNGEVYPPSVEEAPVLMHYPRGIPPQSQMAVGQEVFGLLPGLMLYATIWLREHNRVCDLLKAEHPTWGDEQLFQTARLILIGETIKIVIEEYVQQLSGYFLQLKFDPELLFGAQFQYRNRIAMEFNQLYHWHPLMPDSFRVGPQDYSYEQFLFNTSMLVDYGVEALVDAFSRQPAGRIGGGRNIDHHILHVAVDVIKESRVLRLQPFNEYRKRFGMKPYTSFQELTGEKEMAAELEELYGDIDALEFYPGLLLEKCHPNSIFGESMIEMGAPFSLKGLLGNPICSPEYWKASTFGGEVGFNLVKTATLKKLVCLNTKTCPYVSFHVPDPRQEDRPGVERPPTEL
Assay: Inhibition of ovine COX-1 using arachidonic acid as substrate preincubated with enzyme for 5 mins followed by substrate addition by colorimetric analysis

- smiles structure: "COc1ccc2nc(O)c(/C=N/n3c(=S)[nH]nc(Cc4cc(OC)c(OC)c(OC)c4)c3=O)cc2c1"
  IC50 / µM: 11.8
- smiles structure: "Cc1ccc2nc(O)c(/C=N/n3c(=S)[nH]nc(Cc4ccccc4)c3=O)cc2c1"
  IC50 / µM: 5.9
- smiles structure: "COc1cc(Cc2n[nH]c(=S)n(/N=C/c3cc4cccc(C)c4nc3Cl)c2=O)cc(OC)c1OC"
  IC50 / µM: 8.3
- smiles structure: "Cc1ccc2nc(O)c(/C=N/n3c(=S)[nH]nc(Cc4cccs4)c3=O)cc2c1"
  IC50 / µM: 9
- smiles structure: "CC(C)Oc1ccc2nc(O)c(/C=N/n3c(=S)[nH]nc(Cc4ccccc4)c3=O)cc2c1"
  IC50 / µM: 6.6
- smiles structure: "O=c1c(Cc2ccccc2)n[nH]c(=S)n1/N=C/c1cc2ccccc2nc1O"
  IC50 / µM: 11.3
- smiles structure: "O=c1c(Cc2ccccc2)n[nH]c(=S)n1/N=C/c1cc2cc(OCc3ccccc3)ccc2nc1O"
  IC50 / µM: 12.5
- smiles structure: "COc1ccc2cc(/C=N/n3c(=S)[nH]nc(Cc4ccccc4)c3=O)c(O)nc2c1"
  IC50 / µM: 10.2
- smiles structure: "COc1ccc2nc(O)c(/C=N/n3c(=S)[nH]nc(Cc4ccccc4)c3=O)cc2c1"
  IC50 / µM: 10.5
- smiles structure: "O=c1c(Cc2cccs2)n[nH]c(=S)n1/N=C/c1cc2ccccc2nc1O"
  IC50 / µM: 11.1

---

target: COX-1 (Prostaglandin G/H synthase 1) (Homo sapiens, UniProt P23219); assay: Inhibition of COX-1 in human whole blood assessed as reduction in thromboxane B2 production at 10 uM measured after 1 hr by EIA; type: tissue-based
Sequence (P23219 whole entry): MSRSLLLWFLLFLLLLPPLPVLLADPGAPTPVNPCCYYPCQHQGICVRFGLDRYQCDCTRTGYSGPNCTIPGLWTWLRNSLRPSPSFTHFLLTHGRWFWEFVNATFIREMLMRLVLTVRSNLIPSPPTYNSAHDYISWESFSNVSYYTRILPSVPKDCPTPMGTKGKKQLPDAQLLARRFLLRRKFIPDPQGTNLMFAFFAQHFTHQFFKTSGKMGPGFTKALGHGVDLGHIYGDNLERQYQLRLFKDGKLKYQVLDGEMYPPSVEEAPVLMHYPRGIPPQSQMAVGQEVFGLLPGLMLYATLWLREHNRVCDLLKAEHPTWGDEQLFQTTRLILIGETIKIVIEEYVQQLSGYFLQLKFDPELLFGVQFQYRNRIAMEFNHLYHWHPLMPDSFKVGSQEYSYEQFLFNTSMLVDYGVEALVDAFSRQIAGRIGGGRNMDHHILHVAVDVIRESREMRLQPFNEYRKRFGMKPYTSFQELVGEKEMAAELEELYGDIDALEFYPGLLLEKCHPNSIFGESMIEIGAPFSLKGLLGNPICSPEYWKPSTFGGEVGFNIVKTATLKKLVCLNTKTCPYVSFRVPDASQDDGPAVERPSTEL
recorded metric: inhibition at 1 h, 10 µM (%)

- smiles structure: "COc1ccc(C2=C(c3ccc(OC)cc3)NNC(N/N=C/c3ccc(F)cc3)=N2)cc1"
  meas value: 69
